Test system: KB-VCR
Test: cytotoxicity in drug resistant cell line KB-VCR
Type: cell-based, human
Settings: KB-VCR drug resistant KB derivative
Threshold-based label: Resistance Fold KB-VCR under 20 gives fulfilled, Resistance Fold KB-VCR not under 20 gives not fulfilled.

QUERY: Input COc1cc([C@@H]2c3cc4c(cc3[C@@H](N=Cc3ccc(C(=O)O[C@@H](C(=O)O[C@H]5C[C@@]6(O)[C@@H](OC(=O)c7ccccc7)[C@@H]7[C@]8(OC(C)=O)CO[C@@H]8C[C@H](O)[C@@]7(C)C(=O)[C@H](OC(C)=O)C(=C5C)C6(C)C)[C@@H](NC(=O)c5ccccc5)c5ccccc5)cc3)[C@H]3COC(=O)[C@H]23)OCO4)cc(OC)c1O [Compound 12] ; condition: Resistance Fold KB-VCR strictly below 20. Does it hold?
RESULT: fulfilled

QUERY: Input CC(=O)O[C@H]1C(=O)[C@@]2(C)[C@H]([C@H](OC(=O)c3ccccc3)[C@]3(O)C[C@H](OC(=O)[C@H](O)[C@@H](NC(=O)c4ccccc4)c4ccccc4)C(C)=C1C3(C)C)[C@]1(OC(C)=O)CO[C@@H]1C[C@@H]2O [Paclitaxel, paclitaxel, reference compound] ; condition: Resistance Fold KB-VCR strictly below 20. Does it hold?
RESULT: fulfilled

QUERY: Input COc1cc([C@@H]2c3cc4c(cc3[C@@H](Nc3ccc(N=Cc5ccc(C(=O)O[C@@H](C(=O)O[C@H]6C[C@@]7(O)[C@@H](OC(=O)c8ccccc8)[C@@H]8[C@]9(OC(C)=O)CO[C@@H]9C[C@H](O)[C@@]8(C)C(=O)[C@H](OC(C)=O)C(=C6C)C7(C)C)[C@@H](NC(=O)c6ccccc6)c6ccccc6)cc5)cc3)[C@H]3COC(=O)[C@H]23)OCO4)cc(OC)c1O [Compound 15] ; condition: Resistance Fold KB-VCR strictly below 20. Does it hold?
RESULT: fulfilled

QUERY: Input COc1cc([C@@H]2c3cc4c(cc3[C@@H](Nc3ccc([N+](=O)[O-])cc3)[C@H]3COC(=O)[C@H]23)OCO4)cc(OC)c1O [GL-331, reference compound] ; condition: Resistance Fold KB-VCR strictly below 20. Does it hold?
RESULT: fulfilled

QUERY: Input COc1cc([C@@H]2c3cc4c(cc3[C@@H](O[C@@H]3O[C@@H]5CO[C@@H](C)O[C@H]5[C@H](O)[C@H]3O)[C@H]3COC(=O)[C@H]23)OCO4)cc(OC)c1O [Etoposide, etoposide, reference compound] ; condition: Resistance Fold KB-VCR strictly below 20. Does it hold?
RESULT: not fulfilled

* * *

Tested on: ileocecal carcinoma (HCT-8)
Assay: in vitro cytotoxicity assay, HCT-8
Settings: read-out: Cytotoxicity (ED50) HCT-8; HCT-8; drug exposure 3 days; NA = not active
pEC50 for assorted compounds
Units for pEC50: none; it is -log10 of a concentration expressed in mol/L.

These solved cases illustrate the format of a correct answer.
COc1cc([C@@H]2c3cc4c(cc3[C@@H](N=Cc3ccc(C(=O)O[C@@H](C(=O)O[C@H]5C[C@@]6(O)[C@@H](OC(=O)c7ccccc7)[C@@H]7[C@]8(OC(C)=O)CO[C@@H]8C[C@H](O)[C@@]7(C)C(=O)[C@H](OC(C)=O)C(=C5C)C6(C)C)[C@@H](NC(=O)c5ccccc5)c5ccccc5)cc3)[C@H]3COC(=O)[C@H]23)OCO4)cc(OC)c1O = 6.27
C/C=C(\C)C(=O)N[C@@H](c1ccccc1)[C@@H](OC(=O)c1ccc(C=N[C@@H]2c3cc4c(cc3[C@@H](c3cc(OC)c(O)c(OC)c3)[C@H]3C(=O)OC[C@@H]32)OCO4)cc1)C(=O)O[C@H]1C[C@@]2(O)[C@@H](OC(=O)c3ccccc3)[C@@H]3[C@]4(OC(C)=O)CO[C@@H]4C[C@H](O)[C@@]3(C)C(=O)[C@H](OC(C)=O)C(=C1C)C2(C)C = 5.56

QUERY: Request body: readout pEC50, system ileocecal carcinoma (HCT-8), query COc1cc([C@@H]2c3cc4c(cc3[C@@H](Nc3ccc([N+](=O)[O-])cc3)[C@H]3COC(=O)[C@H]23)OCO4)cc(OC)c1O [GL-331, reference compound] . Return the value.
RESULT: 5.47

* * *

Test system: melanoma cancer (SKMEL-2)
Test: in vitro cytotoxicity assay, SK-MEL-2
Settings: read-out: Cytotoxicity (ED50) SK-MEL-2; SK-MEL-2; drug exposure 3 days; NA = not active
pEC50: −log10 of the molar value.
parameter.measured: pEC50

COc1cc([C@@H]2c3cc4c(cc3[C@@H](Nc3ccc(N=Cc5ccc(C(=O)O[C@@H](C(=O)O[C@H]6C[C@@]7(O)[C@@H](OC(=O)c8ccccc8)[C@@H]8[C@]9(OC(C)=O)CO[C@@H]9C[C@H](O)[C@@]8(C)C(=O)[C@H](OC(C)=O)C(=C6C)C7(C)C)[C@@H](NC(=O)c6ccccc6)c6ccccc6)cc5)cc3)[C@H]3COC(=O)[C@H]23)OCO4)cc(OC)c1O = < 4.40

QUERY: Look at this molecule and give its reported pEC50. "C/C=C(\C)C(=O)N[C@@H](c1ccccc1)[C@@H](OC(=O)c1ccc(C=N[C@@H]2c3cc4c(cc3[C@@H](c3cc(OC)c(O)c(OC)c3)[C@H]3C(=O)OC[C@@H]32)OCO4)cc1)C(=O)O[C@H]1C[C@@]2(O)[C@@H](OC(=O)c3ccccc3)[C@@H]3[C@]4(OC(C)=O)CO[C@@H]4C[C@H](O)[C@@]3(C)C(=O)[C@H](OC(C)=O)C(=C1C)C2(C)C"
RESULT: 5.05

QUERY: Look at this molecule and give its reported pEC50. "COc1cc([C@@H]2c3cc4c(cc3[C@@H](N=Cc3ccc(C(=O)O[C@@H](C(=O)O[C@H]5C[C@@]6(O)[C@@H](OC(=O)c7ccccc7)[C@@H]7[C@]8(OC(C)=O)CO[C@@H]8C[C@H](O)[C@@]7(C)C(=O)[C@H](OC(C)=O)C(=C5C)C6(C)C)[C@@H](NC(=O)c5ccccc5)c5ccccc5)cc3)[C@H]3COC(=O)[C@H]23)OCO4)cc(OC)c1O"
RESULT: < 6.40

* * *

Test system: KB-7d
Experiment: cytotoxicity in drug resistant cell line KB-7d
Format: cell-based, human
Conditions: KB-7d drug resistant KB derivative
Resistance Fold KB-7d for assorted compounds
Lab note: jot the number down without any unit.

COc1cc([C@@H]2c3cc4c(cc3[C@@H](Nc3ccc(N=Cc5ccc(C(=O)O[C@@H](C(=O)O[C@H]6C[C@@]7(O)[C@@H](OC(=O)c8ccccc8)[C@@H]8[C@]9(OC(C)=O)CO[C@@H]9C[C@H](O)[C@@]8(C)C(=O)[C@H](OC(C)=O)C(=C6C)C7(C)C)[C@@H](NC(=O)c6ccccc6)c6ccccc6)cc5)cc3)[C@H]3COC(=O)[C@H]23)OCO4)cc(OC)c1O [Compound 15] = 1
CC(=O)O[C@H]1C(=O)[C@@]2(C)[C@H]([C@H](OC(=O)c3ccccc3)[C@]3(O)C[C@H](OC(=O)[C@H](O)[C@@H](NC(=O)c4ccccc4)c4ccccc4)C(C)=C1C3(C)C)[C@]1(OC(C)=O)CO[C@@H]1C[C@@H]2O [Paclitaxel, paclitaxel, reference compound] = 1

QUERY: Look at this compound and give its reported Resistance Fold KB-7d. COc1cc([C@@H]2c3cc4c(cc3[C@@H](Nc3ccc([N+](=O)[O-])cc3)[C@H]3COC(=O)[C@H]23)OCO4)cc(OC)c1O [GL-331, reference compound]
RESULT: 2

QUERY: Look at this compound and give its reported Resistance Fold KB-7d. COc1cc([C@@H]2c3cc4c(cc3[C@@H](N=Cc3ccc(C(=O)O[C@@H](C(=O)O[C@H]5C[C@@]6(O)[C@@H](OC(=O)c7ccccc7)[C@@H]7[C@]8(OC(C)=O)CO[C@@H]8C[C@H](O)[C@@]7(C)C(=O)[C@H](OC(C)=O)C(=C5C)C6(C)C)[C@@H](NC(=O)c5ccccc5)c5ccccc5)cc3)[C@H]3COC(=O)[C@H]23)OCO4)cc(OC)c1O [Compound 12]
RESULT: 1

QUERY: Look at this compound and give its reported Resistance Fold KB-7d. COc1cc([C@@H]2c3cc4c(cc3[C@@H](O[C@@H]3O[C@@H]5CO[C@@H](C)O[C@H]5[C@H](O)[C@H]3O)[C@H]3COC(=O)[C@H]23)OCO4)cc(OC)c1O [Etoposide, etoposide, reference compound]
RESULT: 119

* * *

Resistance Fold PAX-10 for assorted molecules
Tested on: PAX-10
Experiment: cytotoxicity in paclitaxel-resistant 1A9 sub-line PAX-10
Assay type: cell-based, human
Conditions: PAX-10 paclitaxel-resistant 1A9 sub-line
Lab note: jot the number down without any unit.

QUERY: Look at this molecule and give its reported Resistance Fold PAX-10. C/C=C(\C)C(=O)N[C@@H](c1ccccc1)[C@@H](O)C(=O)O[C@H]1C[C@@]2(O)[C@@H](OC(=O)c3ccccc3)[C@@H]3[C@]4(OC(C)=O)CO[C@@H]4C[C@H](O)[C@@]3(C)C(=O)[C@H](OC(C)=O)C(=C1C)C2(C)C [Cephalomannine, cephalomannine, reference compound]
RESULT: 40

QUERY: Look at this molecule and give its reported Resistance Fold PAX-10. COc1cc([C@@H]2c3cc4c(cc3[C@@H](Nc3ccc([N+](=O)[O-])cc3)[C@H]3COC(=O)[C@H]23)OCO4)cc(OC)c1O [GL-331, reference compound]
RESULT: 13

QUERY: Look at this molecule and give its reported Resistance Fold PAX-10. CC(=O)O[C@H]1C(=O)[C@@]2(C)[C@H]([C@H](OC(=O)c3ccccc3)[C@]3(O)C[C@H](OC(=O)[C@H](O)[C@@H](NC(=O)c4ccccc4)c4ccccc4)C(C)=C1C3(C)C)[C@]1(OC(C)=O)CO[C@@H]1C[C@@H]2O [Paclitaxel, paclitaxel, reference compound]
RESULT: 24

QUERY: Look at this molecule and give its reported Resistance Fold PAX-10. "COc1cc([C@@H]2c3cc4c(cc3[C@@H](N=Cc3ccc(C(=O)O[C@@H](C(=O)O[C@H]5C[C@@]6(O)[C@@H](OC(=O)c7ccccc7)[C@@H]7[C@]8(OC(C)=O)CO[C@@H]8C[C@H](O)[C@@]7(C)C(=O)[C@H](OC(C)=O)C(=C5C)C6(C)C)[C@@H](NC(=O)c5ccccc5)c5ccccc5)cc3)[C@H]3COC(=O)[C@H]23)OCO4)cc(OC)c1O"
RESULT: 7
